System: rodent lifetime carcinogenesis bioassay, tumor incidence TD50
Experimental details: carcinogenic potency in animals, long-term in vivo studies, CPDB compilation (AID 1745844)
Experimental parameters: rat; strain Sprague-Dawley; females; in feed; site: salivary gland; lesion: adenocarcinoma; dosed 46 weeks; study length 66 weeks

{"Molecule smiles": "NNc1nc(-c2ccc([N+](=O)[O-])o2)cs1", "Assay target": "rodent lifetime carcinogenesis bioassay, tumor incidence TD50", "Unit abbrev": "mg/kg/day", "TD50": 145}

###

Test system: rodent lifetime carcinogenesis bioassay, tumor incidence TD50
Experimental details: carcinogenic potency in animals, long-term in vivo studies, CPDB compilation (AID 1745844)
Experimental parameters: mouse; strain Swiss albino; males; in drinking water; site: liver; lesion: several types; types named in the paper; dosed 112 weeks; study length 112 weeks

{"Molecule smiles": "NNc1ccccc1", "Unit abbrev": "mg/kg/day", "TD50": 83.9}

###

Test system: rodent lifetime carcinogenesis bioassay, tumor incidence TD50
Experimental details: carcinogenic potency in animals, long-term in vivo studies, CPDB compilation (AID 1745844)
Experimental parameters: mouse; strain B6C3F1; males; inhaled; site: preputial gland; lesion: carcinoma, NOS + squamous-cell carcinoma; dosed 60 weeks; study length 60 weeks

{"Molecule smiles": "C=CC=C", "Assay target": "rodent lifetime carcinogenesis bioassay, tumor incidence TD50", "Unit abbrev": "mg/kg/day", "TD50": 403}

###

Tested on: rodent lifetime carcinogenesis bioassay, tumor incidence TD50
Experimental details: carcinogenic potency in animals, long-term in vivo studies, CPDB compilation (AID 1745844)
Experimental parameters: rat; strain Sprague-Dawley; females; by gavage; site: extrahepatic tissue; lesion: angiosarcoma; dosed 52 weeks; study length 127 weeks

{"Molecule smiles": "C=CCl", "Assay target": "rodent lifetime carcinogenesis bioassay, tumor incidence TD50", "TD50 (mg/kg/day)": 454}

###

Test system: rodent lifetime carcinogenesis bioassay, tumor incidence TD50
Experimental details: carcinogenic potency in animals, long-term in vivo studies, CPDB compilation (AID 1745844)
Experimental parameters: rat; strain Osborne-Mendel; males; in feed; site: adrenal gland; lesion: cortical adenoma + cortical carcinoma; dosed 80 weeks; study length 109 weeks

{"Molecule smiles": "CCOP(=S)(OCC)Oc1ccc([N+](=O)[O-])cc1", "Assay target": "rodent lifetime carcinogenesis bioassay, tumor incidence TD50", "TD50": "5.22 mg/kg/day"}

###

Tested on: rodent lifetime carcinogenesis bioassay, tumor incidence TD50
Experimental details: carcinogenic potency in animals, long-term in vivo studies, CPDB compilation (AID 1745844)
Experimental parameters: mouse; strain B6C3F1; females; by gavage; site: any site (literature study); lesion: several types; types named in the paper; dosed 105 weeks; study length 107 weeks

{"Molecule smiles": "Cc1ccc(N=C=O)cc1N=C=O", "Assay target": "rodent lifetime carcinogenesis bioassay, tumor incidence TD50", "Unit abbrev": "mg/kg/day", "TD50": 305}

###

Tested on: rodent lifetime carcinogenesis bioassay, tumor incidence TD50
Experimental details: carcinogenic potency in animals, long-term in vivo studies, CPDB compilation (AID 1745844)
Experimental parameters: mouse; strain A x IF; females; in feed; site: lung; lesion: adenoma; dosed 100 weeks; study length 100 weeks

{"Molecule smiles": "CCS(=O)(=O)c1ccc(S(N)(=O)=O)c2ccccc12", "Unit abbrev": "mg/kg/day", "TD50": 53.4}

###

System: rodent lifetime carcinogenesis bioassay, tumor incidence TD50
Experimental details: carcinogenic potency in animals, long-term in vivo studies, CPDB compilation (AID 1745844)
Experimental parameters: rat; strain Fischer 344; males; by gavage; site: skin; lesion: keratoacanthoma; dosed 37 weeks; study length 102 weeks
Readout kind: TD50 (mg/kg/day)

{"Molecule smiles": "CCNC(=O)N(C=O)CCN(C)C", "Assay target": "rodent lifetime carcinogenesis bioassay, tumor incidence TD50", "Readout kind": "TD50", "Recorded number": 1.92}

The measurements presented in this section are drawn from PubChem BioAssay AID1745844.
